Read-out: TIMP metallopeptidase inhibitor 2 (TIMP2), TIMP2 (gene 7077)
testProtocol: BSK_KF3CT_TIMP2: BioMAP Diversity Plus: KF3CT Assay for TIMP metallopeptidase inhibitor 2 (TIMP2) Biomarker Activity (AID 2283071)
measurementContext: primary human keratinocytes with fibroblasts; actives raise or lower the signal
The source made the active and inactive calls. Rule for the calls: active = hit-call score of the fitted dose curve at least 0.9, where 1 is the maximum; inactive = score below 0.9.
Pick one: YES for active, NO for inactive

Worked set:
Cc1cccc(OP(=O)(Oc2cccc(C)c2)Oc2cccc(C)c2)c1 ... NO
CC(C=O)Cc1ccc2c(c1)OCO2 (stereo unspecified) ... NO
Nc1c(Oc2ccccc2)cc(O)c2c1C(=O)c1ccccc1C2=O ... YES
CCCCCCCCCCCCN(C)C ... NO
CCOC(=O)C(SP(=S)(OC)OC)c1ccccc1 (stereo unspecified) ... NO

Let us examine a further case.
**Q:** What is the recorded call for this compound in the test? COCC(=O)N(c1c(C)cccc1C)[C@H](C)C(=O)OC
**A:** NO
